- System under test: T1, Human PD-L1 antigen (human, UniProt Q9NZQ7 19-238)
- T1 construct: also called PD-L1 protein
- T1 sequence (Q9NZQ7 19-238 limits assumed): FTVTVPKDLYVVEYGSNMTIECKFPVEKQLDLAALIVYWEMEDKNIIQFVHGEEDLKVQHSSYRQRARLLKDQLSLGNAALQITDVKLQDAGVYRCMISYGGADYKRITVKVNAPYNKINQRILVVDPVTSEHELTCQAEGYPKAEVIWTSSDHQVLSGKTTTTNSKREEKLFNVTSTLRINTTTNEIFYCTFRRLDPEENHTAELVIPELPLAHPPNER
- Assay procedure: BLI (Octet), His-tagged VHH on anti-penta-His tips, soluble human PD-L1
I'd be grateful if you could share measured Kd for these entries.
Give bare numbers, in nM.

Sample answers from the record:
binder="PL18 (VHH, not shown: C-terminal His-tag) VHH: EVQLVESGGGLVQAGGSLRLSCAASGRTFNIYSMAWFRQAPGKEREFVVRINWNRGTTYYADSVKGRFTISRDNAKNTVYLQMSNLKPEDTAVYYCAARGSPSTIGAFTSASHYDYWGQGTQVTVSS" property_measured=Kd value=2.67
binder="PL11 (VHH, not shown: C-terminal His-tag) VHH: QVQLVESGGGLVQAGGSLRLSCAASGRTFNTYDMGWFRRAPGKEREFVAGIDWYTTNTYYADSVKGRFTISRDNAKNTVYLQMRSLKPEDTAVYYCAAGIRSTATITGQADYWGQGAQVTVSS" property_measured=Kd value=19
binder="PL16 (VHH, not shown: C-terminal His-tag) VHH: QVQLVESGGGLVQAGGSLRLSCAFSGGTFLTYSLGWFRQGPGKEREFVASINWSGYMTSYVDSVKGRFTISRDNAKNTVYLQMNSLKPEDTALYYCAAARTAIAAKRSSEFDYWGQGAQVTVSS" property_measured=Kd value=0.0271
binder="PL14 (VHH, not shown: C-terminal His-tag) VHH: EVQLVESGGGLVQAGGSLRLSCAASGSTSGIYDMGWYRQAPGKLREVVGIITSGGTTNYADFAKGRFTISRDNAKNMMYLQMNSLKPEDTAVYYCNIRTRLIIWGQGTQVTVSS" property_measured=Kd value=0.0177
binder="PL2 (VHH, not shown: C-terminal His-tag) VHH: QVQLVESGGGLVQAGGSLRLSCAVSGLTLSRYTMAWFRQAPGKEREFVAAIIRNSVSTFHEESVKGRFTISRDNVKNMMYLQMNTLKPEDTAVYYCATNVGPTGGFSLQSVQRYDAWGQGTQVTVSS" property_measured=Kd value=630

--- query ---
query: What does the record list as Kd for PL17 (VHH, not shown: C-terminal His-tag) VHH: QVQLVESGGGLVQAGGSLRLSCAASGRTFNTYDMGWFRRTPGKEREFVAGMDWNTINTYYADSVKGRFTISRDNAKNTVYLQMRSLKPEDTAVYYCAAGIRSTAIITGQADYWGQGTQVTVSS ?
result: 0.0114
